Each entry below carries its recorded T/C.
- System: P388 leukemia ip, CD2F1 mice, survival T/C
- experiment description: NCI In Vivo Anticancer Drug Screen. Data for tumor model P388 Leukemia (intraperitoneal) in CD2F1 (CDF1) mice
- measurement parameters: endpoint: median survival time; dose: 200.0 mg/kg/injection; schedule: Q01DX009 (ip); vehicle: saline with Tween-80; higher = longer survival
Toxic doses and inconclusive results are not listed.

* CNC(=O)Oc1ccc(C2CCCCC2)cc1 | 88 % of control
* [Br][Sn]([Br])([S]c1ccccn1)[S]c1ccccn1 | 89 % of control
* O=C(NC(=O)C(F)(F)F)Nc1cc(F)ccc1F | 107 % of control
* CC(CC(=O)c1ccccc1)=NCCCCCN=C(C)CC(=O)c1ccccc1 | 100 % of control
* COC1/C=C/OC2(C)Oc3c(C)c(O)c4c(O)c(c(/C=N/N(C)C5OC(COC(=O)c6ccccc6)C(OC(=O)c6ccccc6)C5OC(=O)c5ccccc5)c(O)c4c3C2=O)NC(=O)C(C)=C/C=C/C(C)C(O)C(C)C(O)C(C)C(OC(C)=O)C1C (stereo not drawn) | 117 % of control
* CCO/C(C)=C(/C(C)=O)C(=O)NC1CCCCC1 | 90 % of control

Record summary for `CC(=O)c1ccc(C)cc1C` : reported T/C = 118 % of control

// sample CC(=O)OC1CCC2(C)C(C1)CC(OC(C)=O)C1C2CC(OC(C)=O)C2(C)C(C(C)CC=C(c3ccccc3)c3ccccc3)CCC12 (stereo not drawn) , its T/C was 99 % of control

The molecule COc1cccc(/C=N/NC(=O)C2CCN(C(=S)NC3CC4C=CC3C4)CC2)c1O (stereo not drawn) showed T/C equal to 103 % of control

Summary for this molecule, `O=[N+]([O-])c1ccc(OCCSc2ccccc2)cc1` : T/C is 100 % of control

Query CCOC1OCN(C2CCCCC2)CC1(C)C (stereo not drawn) yields T/C of 110 % of control

Record `O=C(c1ccccc1)c1cc([N+](=O)[O-])cc([N+](=O)[O-])c1` , field T/C: 97 % of control

Reported T/C of `CCN(CC#N)c1ccc(C=Nc2ccc(OC)cc2OC)cc1` : 97 % of control

Noted for `Clc1ccc2noc(-c3ccccc3)c2c1` : its T/C reads 98 % of control

* * *

- Test system: P388 leukemia ip, CD2F1 mice, survival T/C
- experiment description: NCI In Vivo Anticancer Drug Screen. Data for tumor model P388 Leukemia (intraperitoneal) in CD2F1 (CDF1) mice
- measurement parameters: endpoint: median survival time; dose: 100.0 mg/kg/injection; schedule: Q04DX003 (ip); vehicle: saline with Tween-80; higher = longer survival
- Method: The antitumor activity of compounds was measured in mice bearing transplantable tumors. Survival or tumor size were measured and the results are expressed as the measurement made in the treated group (T) divided by the measurement made in the vehicle treated control group (C). The tumor model used in this assay is P388 Leukemia (intraperitoneal) in CD2F1 (CDF1) mice
Toxic doses and inconclusive results are not listed.
Recorded T/C, one value per entry.

Use these answered entries as a reference point.
* CC(=O)Nc1c(Cl)c(Cl)c2c(c1Cl)Cc1cc(Cl)c(Cl)cc1-2 | 109 % of control
* CCN(C(=O)COc1ccc(Cl)cc1Cl)c1ccccc1C | 100 % of control

# value of T/C, P388 leukemia ip, CD2F1 mice, survival T/C, item `Cc1cccc(-c2cc(Cl)c3cc(S(=O)(=O)F)ccc3n2)c1` = 100 % of control

Note to self: T/C of `O=C1c2ccccc2C(=O)N1N1C(=O)c2ccccc2C1=O` with P388 leukemia ip, CD2F1 mice, survival T/C was 100 % of control

* * *

- Tested on: P388 leukemia ip, CD2F1 mice, survival T/C
- experiment description: NCI In Vivo Anticancer Drug Screen. Data for tumor model P388 Leukemia (intraperitoneal) in CD2F1 (CDF1) mice
- measurement parameters: endpoint: median survival time; dose: 100.0 mg/kg/injection; schedule: Q01DX009 (ip); vehicle: Klucel (hydroxypropylcellulose) (HPC); higher = longer survival
Toxic doses and inconclusive results are not listed.
Property: T/C; scope: individual compounds

See these solved cases before continuing.
* CC(=O)N1c2ccccc2N(C(C)=O)c2nc3ccccc3nc21 | 100 % of control
* Cc1ccc(NC(=S)NCC2CCCO2)cc1C (stereo unspecified) | 91 % of control
* Cc1ccc(S(=O)(=O)NC(C)(COS(=O)(=O)c2ccc(C)cc2)COS(=O)(=O)c2ccc(C)cc2)cc1 | 96 % of control
* CN1C(=O)Cc2ccccc21 | 105 % of control
* COc1cccc(-c2cc(C(=O)O)c3cc4ccccc4cc3n2)c1OC | 101 % of control

Entry CCC(O)(c1ccccc1)C(O)c1ccccc1 (stereo unspecified) , T/C reported as 97 % of control

Lookup result for `COc1ccccc1N1CCN(CCCNc2cc(=O)n(C)c(=O)n2C)CC1` ; measured T/C: 104 % of control

Entry `O=C(c1ccccc1)c1c(-c2ccccc2)c(C(=O)c2ccccc2)n2ccccc12` , T/C reported as 105 % of control

T/C recorded for this compound, CC(=O)OC1OC(C[Se][As](C)C)C(OC(C)=O)C(OC(C)=O)C1OC(C)=O (stereo unspecified) , is 120 % of control

Lookup result for `Cc1ccc(S(=O)(=O)N(C)C2c3ccccc3Oc3ccccc32)cc1` ; measured T/C: 91 % of control

T/C in this record for OC1C=C(c2ccccc2)C(O)(c2ccccc2)C1 (stereo unspecified) : 100 % of control

* * *

- Test system: P388 leukemia ip, CD2F1 mice, survival T/C
- experiment description: NCI In Vivo Anticancer Drug Screen. Data for tumor model P388 Leukemia (intraperitoneal) in CD2F1 (CDF1) mice
- measurement parameters: endpoint: median survival time; dose: 200.0 mg/kg/injection; schedule: Q01DX001 (ip); vehicle: Klucel (hydroxypropylcellulose) (HPC); higher = longer survival
Inconclusive results and toxic doses are left out.
endpoint: T/C

• CN(C)CCn1nc2n(c(=O)c1=O)CC(=O)N(C)c1ccc(Cl)cc1-2 = 101 % of control
• Cc1ccc(/C2=C(\c3ccc(C)cc3)N(c3ccc(C)cc3)CCCCN2c2ccc(C)cc2)cc1 = 87 % of control
• Cc1ccc(-c2cc3cc4c(cc3[nH]2)Sc2ccccc2O4)cc1 = 89 % of control

We next turn to a different compound, shown below.
The compound listed as `CCOP(=O)(O)OCc1ccccc1.[Ti]` has a reported T/C of 93 % of control

* * *

Attribute: T/C
- Tested on: P388 leukemia ip, CD2F1 mice, survival T/C
- experiment description: NCI In Vivo Anticancer Drug Screen. Data for tumor model P388 Leukemia (intraperitoneal) in CD2F1 (CDF1) mice
- measurement parameters: endpoint: median survival time; dose: 200.0 mg/kg/injection; schedule: Q01DX005 (ip); vehicle: saline with Tween-80; higher = longer survival
Toxic doses and inconclusive results are not listed.

* O=C(c1cc(Nc2ccnc3cc(Cl)ccc23)ccc1O)N1CCCCC1 | 121 % of control
* CCCCc1c(O)c(N=NC(N)=S)c2ccccc2c1O | 91 % of control
* COc1ccccc1/C=C/C1=C(C)CCC(c2ccccc2OC)C1C (centres undefined) | 89 % of control
* CC(O)CN1C(=O)c2cccc3cc([N+](=O)[O-])cc(c23)C1=O (centres undefined) | 104 % of control
* Cc1ccc(C2(O)c3ccccc3N=NN2C)cc1 (centres undefined) | 96 % of control
* COC(=O)c1ccc(C)c(N(CCO)CCO)c1 | 104 % of control
* Cc1[nH]nc2c1NC(=O)OC2C (centres undefined) | 101 % of control
* C[Si]1(C)N[Si](C)(C)N([Si](C)(C)C)[Si](C)(C)N1 | 109 % of control

The molecule listed as `COc1ccc(S(=O)(=O)N/N=C\c2cccc([N+](=O)[O-])c2O)cc1OC` has a reported T/C of 101 % of control

* * *

Each record here notes measured T/C.
- System: P388 leukemia ip, CD2F1 mice, survival T/C
- experiment description: NCI In Vivo Anticancer Drug Screen. Data for tumor model P388 Leukemia (intraperitoneal) in CD2F1 (CDF1) mice
- measurement parameters: endpoint: median survival time; dose: 100.0 mg/kg/injection; schedule: Q01DX009 (ip); vehicle: saline with Tween-80; higher = longer survival
Toxic doses and inconclusive results are not listed.

• c1ccc2cc(N3CCOCC3)ccc2c1 = 116 % of control
• COc1ccc(/C(C)=C\C(=O)O)cc1 = 90 % of control
• O=[N+]([O-])c1ccc(N2N=N[C@@H]3C4CCC(C4O)[C@@H]32)cc1 (some centres undefined) = 97 % of control
• O=C(O)c1cnc2cc(Cl)ccc2n1 = 95 % of control
• CC(=O)ON(C(C)=O)C1CCCCC1 = 97 % of control

For the molecule `Cn1c(=O)c2nc(-c3ccccc3)c(-c3ccccc3)nc2n(C)c1=O` , the measured T/C on P388 leukemia ip, CD2F1 mice, survival T/C was 107 % of control

Measured T/C for this entry `COc1ccc(COCc2ccc(OC)c(O)c2)cc1O` on P388 leukemia ip, CD2F1 mice, survival T/C: 99 % of control

Note to self: T/C of `Cc1ccc2nc(CC(O)(c3ccccc3)c3ccccc3)ccc2c1` with P388 leukemia ip, CD2F1 mice, survival T/C was 95 % of control

T/C on P388 leukemia ip, CD2F1 mice, survival T/C for `FC(F)(F)c1cccc(CSCc2c(CSCc3cccc(C(F)(F)F)c3)c(CSCc3cccc(C(F)(F)F)c3)c(CSCc3cccc(C(F)(F)F)c3)c(CSCc3cccc(C(F)(F)F)c3)c2CSCc2cccc(C(F)(F)F)c2)c1` is 98 % of control

Sample CC(C)(C)[Si](C)(C)OCc1ccccc1N1C(=O)C(NC(=O)Cc2ccccc2)C1/C=C/c1ccccc1 (centres undefined) , system: P388 leukemia ip, CD2F1 mice, survival T/C. Its T/C is 94 % of control

Form: item CCOC(=O)C(CNc1ccc(OCc2ccccc2)cc1)NC(=O)c1ccccc1 (centres undefined) ; test system P388 leukemia ip, CD2F1 mice, survival T/C; T/C: 100 % of control

Per the reported P388 leukemia ip, CD2F1 mice, survival T/C data, `O=C(NNc1ccc([N+](=O)[O-])cc1[N+](=O)[O-])Nc1cccc(Cl)c1` has T/C of 99 % of control

Entry COC1/C=C/OC2(C)Oc3c(C)c(O)c4c(O)c(c(/C=N/N(C)C5OC(COC(=O)c6ccccc6)C(OC(=O)c6ccccc6)C5OC(=O)c5ccccc5)c(O)c4c3C2=O)NC(=O)C(C)=C/C=C/C(C)C(O)C(C)C(O)C(C)C(OC(C)=O)C1C (centres undefined) , tested on P388 leukemia ip, CD2F1 mice, survival T/C, has a reported T/C of 114 % of control

T/C for P388 leukemia ip, CD2F1 mice, survival T/C with input `Cc1csc(/N=C2\N/C(=N\c3nc(C)cs3)c3ccccc32)n1` equals 86 % of control

Reported T/C (P388 leukemia ip, CD2F1 mice, survival T/C) for entry `Cc1ccc(S(=O)(=O)OC(=C(F)F)[Si](C)(C)C)cc1` is 94 % of control

// T/C (P388 leukemia ip, CD2F1 mice, survival T/C) for CSC(C(C)=O)c1ccccc1 (centres undefined) = 104 % of control

Hey, P388 leukemia ip, CD2F1 mice, survival T/C data for `Cc1cc(NCCCN(C)C)c2ccc3cc(NCCCN(C)C)c(C)nc3c2n1` : T/C came out at 102 % of control

GET /values?item= `CCCCCCC(=O)/C=C/c1cccc(OC)c1OC` &system= P388 leukemia ip, CD2F1 mice, survival T/C returns T/C: 107 % of control

Test item `Nc1cc2nc3ccccc3sc-2cc1=O` ; P388 leukemia ip, CD2F1 mice, survival T/C; reported T/C was 111 % of control
